Overview of recorded hERG current change (%, negative = inhibition) at 10uM for various molecules
Tested On: human ether-à-go-go-related gene (hERG) potassium channel (human);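 note: peak tail current of the secondary pulse compared with the same well before compound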
Sequence (Q12809 whole entry, looked up): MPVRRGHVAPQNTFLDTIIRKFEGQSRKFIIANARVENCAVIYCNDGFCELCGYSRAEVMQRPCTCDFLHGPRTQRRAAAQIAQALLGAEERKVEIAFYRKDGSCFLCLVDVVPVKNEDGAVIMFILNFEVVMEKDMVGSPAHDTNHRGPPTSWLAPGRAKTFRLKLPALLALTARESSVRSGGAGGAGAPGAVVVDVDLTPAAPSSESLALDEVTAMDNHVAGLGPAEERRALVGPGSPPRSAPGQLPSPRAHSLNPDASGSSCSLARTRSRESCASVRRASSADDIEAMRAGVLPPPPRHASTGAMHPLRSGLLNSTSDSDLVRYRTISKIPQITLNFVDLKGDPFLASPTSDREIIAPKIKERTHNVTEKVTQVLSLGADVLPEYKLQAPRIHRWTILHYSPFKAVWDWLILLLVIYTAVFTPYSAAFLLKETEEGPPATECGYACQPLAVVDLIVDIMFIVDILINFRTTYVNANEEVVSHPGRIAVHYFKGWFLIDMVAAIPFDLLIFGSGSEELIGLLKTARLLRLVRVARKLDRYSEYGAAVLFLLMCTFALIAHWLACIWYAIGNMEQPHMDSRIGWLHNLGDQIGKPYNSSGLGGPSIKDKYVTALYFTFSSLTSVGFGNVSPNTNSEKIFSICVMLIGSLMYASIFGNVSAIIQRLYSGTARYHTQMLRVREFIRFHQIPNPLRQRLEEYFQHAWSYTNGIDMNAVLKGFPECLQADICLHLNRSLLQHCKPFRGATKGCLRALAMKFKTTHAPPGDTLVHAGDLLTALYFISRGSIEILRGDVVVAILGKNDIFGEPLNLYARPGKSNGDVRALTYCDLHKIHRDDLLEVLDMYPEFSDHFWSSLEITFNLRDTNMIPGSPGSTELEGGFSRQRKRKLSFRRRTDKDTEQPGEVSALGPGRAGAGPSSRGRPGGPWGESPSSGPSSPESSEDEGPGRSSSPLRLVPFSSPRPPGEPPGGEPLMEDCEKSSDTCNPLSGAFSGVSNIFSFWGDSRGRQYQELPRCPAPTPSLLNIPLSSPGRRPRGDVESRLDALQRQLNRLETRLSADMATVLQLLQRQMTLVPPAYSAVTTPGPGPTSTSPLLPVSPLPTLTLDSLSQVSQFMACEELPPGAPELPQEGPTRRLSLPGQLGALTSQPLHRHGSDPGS
Test Description: primary screen, population patch clamp on CHO cells stably expressing hERG; higher = less effect of the substance
About 14,000 (4.5%) of roughly 310,000 compounds showed an effect of 50% or more. The effect is printed as a negative number. Only a selection was taken, and strong results are over-represented in it overall.
Reported Metric: hERG current change (%, negative = inhibition) at 10uM (%)

[[record]]
molecule = "CCN(CC)CC(=O)c1c[nH]c2ccc(OC)cc12"
tested_on = "human ether-à-go-go-related gene (hERG) potassium channel (human)"
numeric_value = -22.9

[[record]]
molecule = "CCN(CC)C(=O)CCc1nnc(CCc2c[nH]c3ccccc23)o1"
tested_on = "human ether-à-go-go-related gene (hERG) potassium channel (human)"
numeric_value = 6.93

[[record]]
molecule = "COc1ccc2[nH]cc(C(=O)CN(C)C)c2c1"
tested_on = "human ether-à-go-go-related gene (hERG) potassium channel (human)"
numeric_value = 9.06

[[record]]
molecule = "Nc1nc(SCc2nc3scc(-c4cccs4)c3c(=O)[nH]2)n[nH]1"
tested_on = "human ether-à-go-go-related gene (hERG) potassium channel (human)"
numeric_value = 18.9

[[record]]
molecule = "O=C1CC(c2ccccc2Cl)CC(O)=C1C=Nc1ccccc1 (stereo not drawn)"
tested_on = "human ether-à-go-go-related gene (hERG) potassium channel (human)"
numeric_value = 0.512

[[record]]
molecule = "COc1ccc2[nH]cc(C(=O)CN(C)CCc3ccc(OC)c(OC)c3)c2c1"
tested_on = "human ether-à-go-go-related gene (hERG) potassium channel (human)"
numeric_value = -70.3


---

Tested On: human ether-à-go-go-related gene (hERG) potassium channel (human);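 note: peak tail current of the secondary pulse compared with the same well before compound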
Test Description: primary screen, population patch clamp on CHO cells stably expressing hERG; higher = less effect of the substance
The whole screen tested about 310,000 compounds, of which about 14,000 (4.5%) showed an effect of 50% or more. Effects have a minus sign here. This excerpt belongs to a sample that is enriched for strong results.
Overview of recorded hERG current change (%, negative = inhibition) at 10uM for various molecules
Reported Metric: hERG current change (%, negative = inhibition) at 10uM (%)

[[record]]
molecule = "CCN(CC)CCNC(=O)C(=O)Nc1ccc2c(c1)N(S(=O)(=O)c1cccs1)CCC2"
numeric_value = -78.2

[[record]]
molecule = "O=C(NCc1ccc(F)cc1)C(=O)NCC1CCCN1S(=O)(=O)c1ccccc1 (stereo not drawn)"
numeric_value = -38.2

[[record]]
molecule = "COc1ccc(CCNC(=O)C(=O)NCC2CCCN2S(=O)(=O)c2cccs2)cc1 (stereo not drawn)"
numeric_value = -32.9

[[record]]
molecule = "Cc1cc(F)ccc1S(=O)(=O)N1CCCCC1CCNC(=O)C(=O)NCc1ccccn1 (stereo not drawn)"
numeric_value = -61.4

[[record]]
molecule = "COC(=O)C1=C(C(=O)c2ccccc2)C(c2cccs2)n2nnnc2N1 (stereo not drawn)"
numeric_value = 19.8

[[record]]
molecule = "COc1cc(C(c2c(C)n(C)n(-c3ccccc3)c2=O)c2c(C)n(C)n(-c3ccccc3)c2=O)cc(Br)c1O"
numeric_value = 13.7

[[record]]
molecule = "O=C(NCCc1ccc(F)cc1)C(=O)NCC1CCCN1S(=O)(=O)c1cccs1 (stereo not drawn)"
numeric_value = -57.6

[[record]]
molecule = "CCN(CC(=O)Nc1ccccc1OC)C(=O)CSCc1ccc(C)cc1"
numeric_value = -2.36

[[record]]
molecule = "C=CCn1cccc(C(=O)Nc2ccc(SC)cc2)c1=O"
numeric_value = -15

